Cited source for all entries: paper PMC8177775

Assay: Plasma pharmacokinetics of milademetan
Assay type: in vivo, human
Conditions: human, plasma, po, 60 mg/d, AUCtau, Day 1 of cycle 1, Cohort 1 (60 mg/d) (n = 3), oral QD; mean (SD)
Recorded metric: AUC (ng·h/mL)
Numbers only, in ng·h/mL.

Ask | Suppose we examine the compound "CC1(C)CCC2(CC1)N[C@@H](C(=O)N[C@@H]1CC[C@@H](C(N)=O)OC1)[C@H](c1ccnc(Cl)c1F)[C@]21C(=O)Nc2cc(Cl)ccc21" ; what AUC value has been reported?
Reply | 4250

* * *

Assay: Plasma pharmacokinetics of milademetan
Format: in vivo, human
Details: human, plasma, po, 60 mg/d, Cmax, Day 21 of cycle 1, Cohort 1 (60 mg/d) (n = 2), oral QD; mean (SD)
Recorded metric: Cmax (µg/mL)
Give bare numbers, in µg/mL.

Ask | For "CC1(C)CCC2(CC1)N[C@@H](C(=O)N[C@@H]1CC[C@@H](C(N)=O)OC1)[C@H](c1ccnc(Cl)c1F)[C@]21C(=O)Nc2cc(Cl)ccc21" , what is its reported Cmax?
Reply | 0.625
